From: patent US20060040984A1

Tested On: human H1 receptor (Homo sapiens, UniProt P35367)
Construct: purchased Euroscreen SA, Brussels, Belgium ES-390-M; host or cells: recombinant CHO-K1 cells (membranes)
Sequence (P35367 whole entry): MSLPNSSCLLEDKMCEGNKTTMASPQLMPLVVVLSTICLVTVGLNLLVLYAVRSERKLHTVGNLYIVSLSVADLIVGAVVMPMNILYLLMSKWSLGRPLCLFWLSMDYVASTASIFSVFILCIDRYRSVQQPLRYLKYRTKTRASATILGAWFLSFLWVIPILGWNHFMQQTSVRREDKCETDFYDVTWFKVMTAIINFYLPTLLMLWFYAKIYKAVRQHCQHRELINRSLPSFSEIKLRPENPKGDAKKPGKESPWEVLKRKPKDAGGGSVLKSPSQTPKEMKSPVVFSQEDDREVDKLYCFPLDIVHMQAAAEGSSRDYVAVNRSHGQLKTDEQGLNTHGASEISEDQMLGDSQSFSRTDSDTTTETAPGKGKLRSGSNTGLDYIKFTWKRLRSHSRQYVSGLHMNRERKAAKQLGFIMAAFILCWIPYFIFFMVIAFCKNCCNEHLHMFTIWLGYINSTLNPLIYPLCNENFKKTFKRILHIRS
Assay Overview: Histamine H1 receptor binding, displacement of [3H]-pyrilamine
Measurement Conditions: 1 nM [3H]-pyrilamine; membranes of recombinant CHO-K1 cells expressing human H1 receptor; read-out: H1 pKi/[1328_S] (converted)
Experimental Endpoint: Ki (nM)

Illustrative cases are given below, each with its answer.
1) O=S(=O)(NCCCN1CCC(CN2CCC(Oc3ccc(Cl)c(Cl)c3)CC2)CC1)C(F)(F)F: 20
2) Cc1c(Cl)ccc(OC2CCN(CC3CCN(C(C(=O)O)c4ccc(F)cc4)CC3)CC2)c1Cl (centres unmarked): 25.1
3) Cc1cc(Cl)ccc1OC1CCN(CC2CCN(C(C(=O)O)c3ccccc3C)CC2)CC1 (centres unmarked): 158

P. Cc1ccc(C(C(=O)O)N2CCC(CN3CCC(Oc4ccc(Cl)cc4C)CC3)CC2)cc1 (centres unmarked)
Q. Clc1ccc(OC2CCN(CC3CCN(Cc4nn[nH]n4)CC3)CC2)cc1Cl
// pick larger Ki from pair: P vs Q Selection: enter the item's label.
Q
(Q: 39.8 nM, P: 25.1 nM)

I. O=C(O)CN1CCC(CN2CCC(Oc3ccc(Cl)c(Cl)c3)CC2)CC1
II. COc1ccccc1C(C(=O)O)N1CCC(O)(CN2CCC(Oc3ccc(Cl)c(Cl)c3)CC2)CC1 (centres unmarked)
III. Cc1ccc(C(C(=O)O)N2CCC(CN3CCC(Oc4ccc(Cl)c(C)c4Cl)CC3)CC2)cc1 (centres unmarked)
Rank the items in ascending order with respect to Ki. Quick reminder: the answer is the labels in the order asked.
II, III, I
